# Tested on: Mus musculus
# Test name: Anticonvulsant activity in ip dosed CF-1 albino mouse assessed as protection from maximal electric shock-induced seizures measured after 0.5 hrs
# Assay type: functional
# Recorded conditions: read-out: MED
Value kind: minimal effective dose (mg/kg)
All answers are understood in mg/kg, so give the number only.

Example compounds with recorded minimal effective dose:
O=C1CC(c2ccccc2F)C(=O)N1CN1CCN(c2cccc(C(F)(F)F)c2)CC1 (racemic) : 300
O=C1NC(=O)C(c2ccccc2)(c2ccccc2)N1 : 30
Cl.Cl.O=C1CC(c2ccccc2Br)C(=O)N1CN1CCN(CCO)CC1 (racemic) : 100

Record O=C1CC(c2ccccc2F)C(=O)N1CN1CCN(Cc2ccccc2)CC1 (racemic) , field minimal effective dose: 300

Record O=C1CC(c2ccccc2F)C(=O)N1CN1CCOCC1 (racemic) , field minimal effective dose: 100

Record O=C1CC(c2ccccc2Br)C(=O)N1CN1CCOCC1 (racemic) , field minimal effective dose: 100

Value source: ChEMBL document CHEMBL2086314
